These data points were gathered from patent US8470835B2.

Tested on: Recombinant human VEGFR2 (KDR) (Homo sapiens (Human), UniProt P35968)
Sequence (P35968 786-1356): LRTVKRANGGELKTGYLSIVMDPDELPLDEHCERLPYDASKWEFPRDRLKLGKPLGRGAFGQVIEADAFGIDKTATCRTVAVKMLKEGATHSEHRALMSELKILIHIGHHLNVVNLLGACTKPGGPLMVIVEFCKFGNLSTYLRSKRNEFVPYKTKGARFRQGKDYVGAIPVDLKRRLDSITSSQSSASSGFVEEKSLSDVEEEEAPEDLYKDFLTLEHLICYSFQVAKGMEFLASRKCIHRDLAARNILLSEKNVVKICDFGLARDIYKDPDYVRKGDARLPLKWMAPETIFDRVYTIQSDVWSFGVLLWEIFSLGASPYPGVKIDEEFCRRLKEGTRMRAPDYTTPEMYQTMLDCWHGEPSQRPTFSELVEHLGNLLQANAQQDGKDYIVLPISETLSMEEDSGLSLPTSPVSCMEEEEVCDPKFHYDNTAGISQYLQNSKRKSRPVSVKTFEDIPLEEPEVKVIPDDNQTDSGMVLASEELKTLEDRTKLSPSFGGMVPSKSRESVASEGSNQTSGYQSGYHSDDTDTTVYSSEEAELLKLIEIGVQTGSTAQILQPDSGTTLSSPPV
Test protocol: VEGFR2 (KDR) enzyme assay, TR-FRET kinase assay (3)
Conditions used: read-out: Vegfr enzyme assay (3) IC50
Readout kind: IC50 (µM)
# value in µM; strip the unit string

QUERY: # return recorded IC50 for input Cc1cccc(Nc2nc(N[C@@H]3CCCC[C@@H]3N)ncc2C(N)=O)c1 [Reference example 1]
RESULT: 6.3
